test: in vitro; conditions: African green monkey
readout: CC50 (µM)
The reply should contain only the number, in µM.

Exercise: Which CC50 value is on record for Cc1c(O)cccc1C(=O)N[C@@H](CSc1ccccc1)[C@H](O)CN1C[C@H]2CCCC[C@H]2C[C@H]1C(=O)NC(C)(C)C ?
Key: 14.6
